Cited source: ChEMBL document CHEMBL1201862

Tested on: OVCAR-3
ASSAY DETAILS: NCI tumour cell line growth inhibition, 48 h
Active and inactive are the calls of the source. No stated cut-off is given here; in the data, active = GI50 up to about 1.1 µM and inactive = higher.
VALUE TYPE: GI50

COMPOUND: COc1nc(O)c(N)c(NC2OC(CO)C(O)C(O)C2O)n1 (stereo unspecified)
RECORDED RESULT: > 100 µM (inactive)

COMPOUND: CC1CCCCc2nc3c(c(=O)n21)CCCC3 (stereo unspecified)
RECORDED RESULT: > 100 µM (inactive)

COMPOUND: CS(=O)(=O)c1ccc(/N=C/C=C/Nc2ccc(S(C)(=O)=O)cc2)cc1
RECORDED RESULT: > 100 µM (inactive)

COMPOUND: COc1ccc2c(c1)C(=O)C1(C2)[C@H](c2ccccc2)C2C(=O)c3cc(OC)ccc3C2[C@H]1c1ccccc1 (stereo partly specified)
RECORDED RESULT: > 100 µM (inactive)

COMPOUND: O=C1NC(=O)C(CCC(=O)c2cccc3ccccc23)C(=O)N1
RECORDED RESULT: > 100 µM (inactive)

Note: attention shifts to another entry.
Which measured GI50 value corresponds to OCCN1CCN2C=C(C3CCCC4N(CCO)CCN34)CCC21 (stereo unspecified) ? 35.4 µM (inactive)
